Biological target: Mast/stem cell growth factor receptor Kit (Homo sapiens);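 further: values given as mean inhibition of KIT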
Settings: at 1 µM
Hi there, I'd appreciate the recorded inhibition for every entry that follows.
// return numeric value only (unit: %, not printed)

Query block: // returns reported inhibition for input Fc1cccc(COc2ccc(Nc3ncnc4sc(-c5ccco5)cc34)cc2Cl)c1
Result block: 6.21

Query block: // returns reported inhibition for input COc1ccc(-c2nn3ncccc3c2-c2ccnc(Nc3ccc4c(c3)OCCO4)n2)cc1
Result block: 85.2

Query block: // returns reported inhibition for input NS(=O)(=O)c1ccc(Nc2ncc(-c3ccccc3)o2)cc1
Result block: 88.6

Query block: // returns reported inhibition for input c1cc(-c2cnn3nc(N4CCOCC4)ccc23)nc(NC2CC2)n1
Result block: 20.9

Query block: // returns reported inhibition for input CN(C)CCOc1ccc(-c2nc(-c3ccncc3)c(-c3ccc4c(c3)CC/C4=N\O)[nH]2)cc1
Result block: 5.36

Query block: // returns reported inhibition for input CS(=O)(=O)CCNCc1coc(-c2ccc3ncnc(Nc4ccc(OCc5ccccc5)cc4)c3c2)c1
Result block: 8.33

Query block: // returns reported inhibition for input CC1=C(C(=O)Nc2cc(Cl)c3[nH]ncc3c2)C(c2ccc(C(F)(F)F)cc2)CC(=O)N1 (centres undefined)
Result block: 0.36

Query block: // returns reported inhibition for input CC(C)(CO)CNC(=O)c1ccc2c(c1)/C(=N/Nc1ccc(S(N)(=O)=O)cc1)C(=O)N2
Result block: 6.13

Query block: // returns reported inhibition for input NC(=O)c1sc(-n2cnc3ccc(C(F)(F)F)cc32)cc1OCc1ccccc1Br
Result block: 5.18

* * *

Molecular target: Protein kinase C eta type (Homo sapiens) (UniProt P24723);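 further: values are the mean percent inhibition of PKC-eta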
Sequence (P24723 whole entry): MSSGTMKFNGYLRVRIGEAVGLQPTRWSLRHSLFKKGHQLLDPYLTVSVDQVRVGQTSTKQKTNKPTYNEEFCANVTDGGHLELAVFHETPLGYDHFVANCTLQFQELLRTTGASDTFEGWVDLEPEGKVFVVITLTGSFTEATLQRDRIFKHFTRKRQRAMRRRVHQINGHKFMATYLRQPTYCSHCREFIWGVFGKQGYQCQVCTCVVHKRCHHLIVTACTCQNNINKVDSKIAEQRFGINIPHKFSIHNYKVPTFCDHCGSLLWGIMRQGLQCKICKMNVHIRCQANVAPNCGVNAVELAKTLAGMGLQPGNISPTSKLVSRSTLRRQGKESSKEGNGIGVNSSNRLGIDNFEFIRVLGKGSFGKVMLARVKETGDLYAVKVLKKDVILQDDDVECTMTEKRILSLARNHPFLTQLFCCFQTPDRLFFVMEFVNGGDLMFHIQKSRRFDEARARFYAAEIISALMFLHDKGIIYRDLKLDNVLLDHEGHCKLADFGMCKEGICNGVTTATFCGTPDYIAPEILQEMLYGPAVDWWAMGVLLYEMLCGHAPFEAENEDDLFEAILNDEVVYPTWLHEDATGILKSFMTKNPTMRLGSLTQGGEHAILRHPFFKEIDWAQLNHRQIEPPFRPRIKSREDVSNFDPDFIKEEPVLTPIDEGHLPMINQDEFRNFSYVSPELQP
Conditions: at 0.1 µM
quantity_measured: inhibition (%)
// return numeric value only (unit: %, not printed)

Query block: // returns reported inhibition for input NS(=O)(=O)c1ccc(N/N=C2\C(=O)Nc3ccc4ncccc4c32)cc1
Result block: 2.36

Query block: // returns reported inhibition for input CNC(=O)c1cccc(C#Cc2cncnc2Nc2ccc(OCc3cccc(F)c3)c(Cl)c2)c1
Result block: 1.23

Query block: // returns reported inhibition for input O=S(=O)(CCNCc1ccc(-c2ccc3ncnc(Nc4ccc(OCc5cccc(F)c5)c(Cl)c4)c3c2)o1)c1ccccc1
Result block: 4.07

Query block: // returns reported inhibition for input CCn1c(-c2nonc2N)nc2c(C#CC(C)(C)O)nc(OC[C@H](N)c3ccccc3)cc21
Result block: 97.9

Query block: // returns reported inhibition for input COc1cc2c(cc1Nc1nc(Nc3ccsc3C(N)=O)c3cc[nH]c3n1)N(C(=O)CN(C)C)CCC2(C)C
Result block: 6.04

Query block: // returns reported inhibition for input CCn1c(-c2nonc2N)nc2ccccc21
Result block: 20.8

Query block: // returns reported inhibition for input Cc1cccc(Nc2ncc(-c3ccccc3)o2)c1
Result block: 2.87

Query block: // returns reported inhibition for input N#Cc1c(NC(=O)c2ccc(F)cc2)sc2c1CCCC2
Result block: 3.5

Query block: // returns reported inhibition for input Fc1ccc(-c2nn3ncccc3c2-c2ccnc(Nc3ccc4c(c3)OCCO4)n2)cc1
Result block: 2.26

Query block: // returns reported inhibition for input Cc1ccc2c(-c3ccnc(Nc4ccccc4)n3)c(-c3ccc(F)cc3)nn2n1
Result block: 0.7

* * *

Target: Serine/threonine-protein kinase Nek1 (Homo sapiens) (UniProt Q96PY6);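 further: mean percent inhibition of NEK1 kinase, from the GSK PKIS (published kinase inhibitor set) screening panel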
Sequence (whole entry): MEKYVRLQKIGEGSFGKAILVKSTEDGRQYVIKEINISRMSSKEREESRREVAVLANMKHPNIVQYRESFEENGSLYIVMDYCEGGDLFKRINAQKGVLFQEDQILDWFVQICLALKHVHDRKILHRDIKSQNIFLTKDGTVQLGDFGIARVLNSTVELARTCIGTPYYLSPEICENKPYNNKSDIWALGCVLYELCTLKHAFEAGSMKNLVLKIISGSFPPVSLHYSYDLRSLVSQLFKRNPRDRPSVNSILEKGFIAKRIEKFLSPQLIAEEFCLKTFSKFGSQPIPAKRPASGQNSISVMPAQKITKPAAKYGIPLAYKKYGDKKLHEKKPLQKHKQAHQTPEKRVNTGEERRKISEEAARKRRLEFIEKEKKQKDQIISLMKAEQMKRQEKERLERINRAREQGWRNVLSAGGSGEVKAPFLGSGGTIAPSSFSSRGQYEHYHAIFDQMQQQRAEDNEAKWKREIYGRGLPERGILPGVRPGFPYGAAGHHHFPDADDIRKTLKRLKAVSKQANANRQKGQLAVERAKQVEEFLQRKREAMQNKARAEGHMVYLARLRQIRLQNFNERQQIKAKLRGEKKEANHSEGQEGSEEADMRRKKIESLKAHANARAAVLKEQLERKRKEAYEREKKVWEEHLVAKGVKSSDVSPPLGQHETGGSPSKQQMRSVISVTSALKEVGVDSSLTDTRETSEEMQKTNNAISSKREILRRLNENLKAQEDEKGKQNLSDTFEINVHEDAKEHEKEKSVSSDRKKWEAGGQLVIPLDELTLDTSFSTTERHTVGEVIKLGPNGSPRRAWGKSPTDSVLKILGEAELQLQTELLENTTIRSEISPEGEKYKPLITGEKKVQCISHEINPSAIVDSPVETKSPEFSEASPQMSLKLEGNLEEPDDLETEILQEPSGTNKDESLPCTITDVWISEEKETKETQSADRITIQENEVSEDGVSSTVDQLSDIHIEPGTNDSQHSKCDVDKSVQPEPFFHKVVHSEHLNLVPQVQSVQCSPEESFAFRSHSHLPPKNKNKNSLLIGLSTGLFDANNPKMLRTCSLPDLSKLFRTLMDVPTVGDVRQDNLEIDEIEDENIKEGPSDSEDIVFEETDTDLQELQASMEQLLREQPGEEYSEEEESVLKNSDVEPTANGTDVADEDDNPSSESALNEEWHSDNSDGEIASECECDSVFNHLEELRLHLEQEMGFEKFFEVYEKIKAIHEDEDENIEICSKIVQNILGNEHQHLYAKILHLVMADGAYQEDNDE
Conditions: at 0.1 µM
quantity_measured: inhibition (%)
// return numeric value only (unit: %, not printed)

Query block: // returns reported inhibition for input COC(=O)Nc1nc2ccc(S(=O)(=O)c3ccc(NC(=O)Nc4cc(C(F)(F)F)ccc4F)cc3)cc2[nH]1
Result block: 2.08

Query block: // returns reported inhibition for input COc1cccc(-c2c[nH]c3c(N/N=C/c4ccncc4)ncnc23)c1
Result block: 1.94

Query block: // returns reported inhibition for input COc1ccc(-c2cc(-c3c[nH]nc3-c3ccccn3)ccn2)cc1
Result block: 2.15

Query block: // returns reported inhibition for input CS(=O)(=O)CCNCc1coc(-c2ccc3ncnc(Nc4ccc(OCc5ccccc5)cc4)c3c2)c1
Result block: 2.15

Query block: // returns reported inhibition for input CN1CCC(n2cnc(-c3ccc(F)cc3)c2-c2ccnc(Nc3ccccc3)n2)CC1
Result block: 1.95

Query block: // returns reported inhibition for input N#Cc1c(NC(=O)CN2CCOCC2)sc2c1CCCC2
Result block: 2.42

Query block: // returns reported inhibition for input Cc1ccc(O)cc1Nc1ccnc2cc(-c3ccccn3)ccc12
Result block: 2.99

Query block: // returns reported inhibition for input COc1cccc(-n2ncc3c(N/N=C/c4ccc(F)cc4)ncnc32)c1
Result block: 2.09

Query block: // returns reported inhibition for input COC(=O)Nc1nc2ccc(Oc3ccc(NC(=O)Nc4cccc(Cl)c4)cc3)cc2[nH]1
Result block: 0.97

Query block: // returns reported inhibition for input Fc1ccc(-c2nn3ncccc3c2-c2ccnc(Nc3ccc4c(c3)OCCO4)n2)cc1
Result block: 2.45

Query block: // returns reported inhibition for input Cc1cccc(Nc2ncc(-c3ccccc3)o2)c1
Result block: 4.04

Query block: // returns reported inhibition for input CCn1c(-c2nonc2N)nc2ccccc21
Result block: 2.18

Query block: // returns reported inhibition for input COc1cc2ncn(-c3cc(OCc4ccccc4C(F)(F)F)c(C(=O)N(C)C)s3)c2cc1OC
Result block: 0.82

Query block: // returns reported inhibition for input COc1ccc(CNC(=O)c2ccc(-c3cc(-c4nnc(C)o4)ccc3C)cc2)cc1
Result block: 3.38

Query block: // returns reported inhibition for input CCNC(=O)O[C@H]1CN[C@H](C#Cc2cc3ncnc(Nc4ccc(OCc5cccc(F)c5)c(Cl)c4)c3s2)C1
Result block: 1.8

Query block: // returns reported inhibition for input CNC(=O)c1cncc(/C=C/c2ccccc2Cl)c1
Result block: -0.35

Query block: // returns reported inhibition for input CC(=O)NCc1cccc(C#Cc2cncnc2Nc2ccc(OCc3cccc(F)c3)c(Cl)c2)c1
Result block: 0.64

Query block: // returns reported inhibition for input NS(=O)(=O)c1ccc(N/N=C2\C(=O)Nc3ccc4ncccc4c32)cc1
Result block: 1.98

Query block: // returns reported inhibition for input CNC(=O)c1cc(-c2ccc(F)cc2)cc(-c2ccc(S(=O)(=O)N3CCCC3)cc2)c1N
Result block: 1.09

Query block: // returns reported inhibition for input COc1ccc2[nH]c3c4[nH]c5ccc(OC)cc5c4c4c(c3c2c1)C(=O)NC4=O
Result block: 0.76

Query block: // returns reported inhibition for input O=S(=O)(CCNCc1ccc(-c2ccc3ncnc(Nc4ccc(OCc5cccc(F)c5)c(Cl)c4)c3c2)o1)c1ccccc1
Result block: 3.48
